Exercise: for every item that follows, state its recorded inhibition.
- MEASUREMENT_TARGET: Estrogen receptor beta (Homo sapiens) (UniProt Q92731)
- Sequence (Q92731 whole entry, looked up): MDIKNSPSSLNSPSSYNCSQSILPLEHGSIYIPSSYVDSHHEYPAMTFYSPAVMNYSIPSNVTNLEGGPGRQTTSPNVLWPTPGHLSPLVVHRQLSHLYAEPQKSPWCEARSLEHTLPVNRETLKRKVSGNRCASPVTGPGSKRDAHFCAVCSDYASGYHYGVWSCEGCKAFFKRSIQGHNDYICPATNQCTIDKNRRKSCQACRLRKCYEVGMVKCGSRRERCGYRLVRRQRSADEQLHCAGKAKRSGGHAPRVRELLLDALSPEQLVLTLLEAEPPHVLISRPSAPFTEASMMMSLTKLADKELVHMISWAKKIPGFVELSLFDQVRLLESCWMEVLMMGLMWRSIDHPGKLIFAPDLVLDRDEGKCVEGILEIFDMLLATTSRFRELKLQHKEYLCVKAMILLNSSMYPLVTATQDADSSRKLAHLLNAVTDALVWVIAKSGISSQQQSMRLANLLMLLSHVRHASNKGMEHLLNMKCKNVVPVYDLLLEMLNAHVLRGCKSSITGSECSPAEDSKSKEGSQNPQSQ
- EXPERIMENTAL_PROTOCOL: displacement of fluorescent estrogen from ERbeta – cell-based, Cos7 ERbeta-GFP, flow cytometry, primary screen (AID 1210);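 note: 0% = DMSO vehicle wells and 100% = complete loss of labeled estradiol signal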
- CONDITION_INFO: fluorescent estrogen binding, at 10 µM, stronger effect = higher value
The source made the active and inactive calls.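 Rule for the calls: active = blocks over 70% of labeled estradiol binding at 10 µM, or over a set limit at 100 nM; inactive = the rest.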

- CCOc1cccc2cc(-c3cn4cc(C)ccc4n3)c(=O)oc12: 27% (inactive)

Please go through the list and note inhibition for each compound.
1. CCOc1ccccc1-n1nnnc1SCC(=O)NC(=O)NCc1ccco1
2. O=C(Nc1nccs1)c1ccc2nccnc2c1
3. CCOC(=O)c1c(NC(=O)CSc2nnc(-c3ccccc3)o2)sc(C(C)=O)c1C
4. CCOC(=O)c1c(C)[nH]c(C)c1C(=O)CSc1nnc(-c2cc(OC)c(OC)c(OC)c2)o1
5. COc1cccc(C(=O)NC2CCN(C(=O)N3c4ccccc4Sc4ccccc43)CC2)c1

Result:
1: 32% (inactive); 2: 36% (inactive); 3: 40% (inactive); 4: 69% (inactive); 5: 43% (inactive)

Provide the reported inhibition of each entry below, same order.
1. Oc1ccc2c(c1)c1c3n2CCNC3CCC1 (stereo not drawn)
2. COc1ccc2nc3oc(C(=O)N4CCN(c5cccc(C(F)(F)F)c5)CC4)cc3cc2c1
3. Oc1c(Cl)cc(Cl)cc1Sc1cc(Cl)cc(Cl)c1O
4. O=C(Cn1nnc(-c2ccc3c(c2)OCO3)n1)NCc1ccco1
5. Cc1oc2c(C)c(O)ccc2c(=O)c1-c1ccc2ccccc2n1
6. Cn1c(-c2ccc(N)cc2)nc2ccccc21

Result:
25% (inactive)
24% (inactive)
33% (inactive)
46% (inactive)
15% (inactive)
24% (inactive)

Provide inhibition for all items below, preserving their order.
1. CC1=CC(C)C2(CO)COC(c3ccccc3O)C1C2C (stereo not drawn)
2. O=C(CSc1nnc(Nc2ccccc2F)s1)NCc1ccco1
3. Cn1c(SCc2cc(=O)n3cc(Br)ccc3n2)nnc1C1COc2ccccc2O1 (stereo not drawn)
4. CCCOc1cc2oc(=O)c3c(c2cc1CC)CCCC3
5. CCCCCCc1cc2c3c(c(=O)oc2cc1OCC(=O)O)CCCC3
6. O=c1[nH]c(N/N=C/c2ccc(O)cc2)nc2ccccc12
7. COc1ccc(C2Nc3ccccc3C(=O)N2c2ccccc2)cc1CSc1ccccn1 (stereo not drawn)

Result:
66% (inactive)
4% (inactive)
16% (inactive)
20% (inactive)
7% (inactive)
34% (inactive)
60% (inactive)

Please report inhibition for every entry that follows.
1. CCOc1[nH]c(/N=C/c2ccco2)c(C#N)c1C#N
2. CCCc1c(C(=O)OCC)[nH]c2c1C(=O)CC(c1ccccc1)C2 (stereo not drawn)
3. COc1ccc(NS(=O)(=O)c2ccc3c(c2)[C@H]2C=CC[C@H]2[C@@H](c2ccc(C(=O)O)cc2)N3)cc1
4. Cc1ccc(-c2cc(C(=O)NCc3ccco3)c3ccccc3n2)o1

Result:
["35% (inactive)", "39% (inactive)", "88% (active)", "36% (inactive)"]

Reference source: PubChem BioAssay AID1210
